The origin of these recorded values is paper PMC11224556.

# System: BT474 breast cancer cells
# test_method_notes: MTT growth inhibition assay (72 h)
# Type: cell-based, human
# conditions_used: Homo sapiens, BT-474, BT474, Breast (ER/PR/HER2)
# Experimental: Each BBQ analogue, 2-14 was screened for their growth inhibition ability (GI50) in a broad panel of cancer cell lines and a non-cancer breast cell line (MCF10A), using the MTT growth inhibition assay (Table 1) ([Baker et al., 2021b]). […] Cells in logarithmic growth were transferred to 96-well plates. Cytotoxicity was determined by plating cells in duplicate in 100 μL medium at a density of 2,500–4,000 cells/well in 96 well plates. […]
Overview of reported GI50 across a group of molecules:

| molecule | GI50 |
| --- | --- |
| O=c1c2cccc3cccc(c32)c2nc3cc(Cl)ccc3n12 | > 50 µM |
| O=c1c2cccc3cccc(c4n1Cc1ccccc1N=4)c32 | > 50 µM |
| O=C(O)c1ccc2c3c1cccc3c(=O)n1c3ccccc3nc21 [Compound 14, reference compound] | > 50 µM |
| O=c1c2cccc3cccc(c32)c2nc3ccc(Cl)cc3n12 | > 50 µM |
| O=c1c2cccc3cccc(c32)c2nc3ccccc3n12 | 1.5 µM |
| O=c1c2ccccc2cc2[nH]c3ccccc3n12 | > 50 µM |
